# Test system: Staphylococcus aureus
# protocol-details: Antibacterial activities against Staphylococcus aureus ATCC 2943 after 16 to 24 hrs by twofold serial dilution method
# Assay type: functional
assay-metric: -logMIC

# annotated cases, reported -logMIC shown
Would you kindly share the measured -logMIC for CCOC(=O)C1(C(C)=O)C(c2ccc(N(C)C)cc2)N1c1ccc(/N=N/c2cccc(O)c2)cc1 (stereo not drawn) ?
4.155

And for CCOC(=O)C1(C(C)=O)C(c2ccc(N(C)C)cc2)N1c1ccc(/N=N/c2cccc(C(=O)O)c2)cc1 (stereo not drawn) ?
4.398

Others:
Give the measured -logMIC of CCOC(=O)C1(C(C)=O)C(c2ccc(N(C)C)cc2)N1c1ccc(/N=N/c2cccc(C)c2)cc1 (stereo not drawn) .
4.292

FYI, the data here is from ChEMBL document CHEMBL1152835.
